The following compounds are shown together with reported activation at 1.54 µM values.
Biological target: UniProtKB P30613
Sequence (P30613 whole entry): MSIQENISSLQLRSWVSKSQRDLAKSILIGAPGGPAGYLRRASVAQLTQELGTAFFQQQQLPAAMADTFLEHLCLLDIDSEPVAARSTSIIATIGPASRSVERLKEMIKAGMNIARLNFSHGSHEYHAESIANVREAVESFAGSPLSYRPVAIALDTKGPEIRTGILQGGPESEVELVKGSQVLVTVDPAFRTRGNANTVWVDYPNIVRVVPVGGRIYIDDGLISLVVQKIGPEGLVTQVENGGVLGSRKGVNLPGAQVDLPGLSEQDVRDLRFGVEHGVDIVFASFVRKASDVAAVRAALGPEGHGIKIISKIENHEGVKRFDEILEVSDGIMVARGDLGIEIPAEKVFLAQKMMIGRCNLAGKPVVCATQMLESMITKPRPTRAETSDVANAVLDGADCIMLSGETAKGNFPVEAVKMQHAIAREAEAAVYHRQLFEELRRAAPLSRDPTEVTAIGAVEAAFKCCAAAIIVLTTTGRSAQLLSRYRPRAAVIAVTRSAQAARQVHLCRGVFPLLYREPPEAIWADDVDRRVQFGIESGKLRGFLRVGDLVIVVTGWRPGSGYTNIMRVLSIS
Assay: Luminescence Biochemical Assay (Kinase Glo Plus), wild type PKR
Conditions: without FBP, 1.54 μM compound, read-out: AC50 LUM KGP woFBP % Fold@1.54 μM mean

Quick check: activation at 1.54 µM of Cc1cc(CNC(=O)N2CC3=C(C2)CN(S(=O)(=O)c2ccccn2)C3)no1 [Example 21-43] ? 75 to 250%

Quick check: activation at 1.54 µM of N#Cc1ccc(S(=O)(=O)N2CC3=C(CN(C(=O)[C@H](O)c4ccccc4)C3)C2)cc1 [Example 18-45] ? 75 to 250%

Quick check: activation at 1.54 µM of O=C(NCc1ccc(F)cc1)N1CC2=C(C1)CN(S(=O)(=O)c1ccccn1)C2 [Example 21-41] ? 75 to 250%

// data source = patent US12122778B2
